Target: human μ opiate receptor (Homo sapiens, UniProt P35372)
Construct: purchased PerkinElmer Life Sciences, Zaventem, Belgium RB-HOM; host or cells: CHO-K1 cells (membrane preparation)
Sequence (P35372 whole entry): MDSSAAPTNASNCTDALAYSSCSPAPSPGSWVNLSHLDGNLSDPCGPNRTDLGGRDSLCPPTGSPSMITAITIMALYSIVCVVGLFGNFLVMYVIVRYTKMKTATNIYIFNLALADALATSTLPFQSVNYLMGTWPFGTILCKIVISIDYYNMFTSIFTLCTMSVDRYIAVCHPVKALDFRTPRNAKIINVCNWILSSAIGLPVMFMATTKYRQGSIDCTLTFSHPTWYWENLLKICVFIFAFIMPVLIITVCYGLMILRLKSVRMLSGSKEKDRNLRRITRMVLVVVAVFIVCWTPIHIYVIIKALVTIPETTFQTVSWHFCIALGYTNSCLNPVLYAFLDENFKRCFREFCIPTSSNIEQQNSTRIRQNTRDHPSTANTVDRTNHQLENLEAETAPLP
Test: Affinity for the human μ opiate receptor ([3H]-naloxone displacement, CHO-K1 receptor membrane preparation, SPA)
Type: binding
Details: test concentration of 1 μM
Lab note: class by μ (binding on the μ opioid receptor, % inhibition), see interval 1 = under 60%, interval 2 = from 60% up to 70%, interval 3 = 70% and over

These recorded examples may help you get a feel for the data.
Hi there! Could you help me figure out the category for CN(C)C(c1cccc(F)c1)C1CCC(CNC(=O)COC2CCN(S(=O)(=O)c3ccccc3)C2)CC1 (centres unmarked) [Example 355] please?
interval 2

Looking at COc1cc(C)c(S(=O)(=O)N(CCOCC(=O)NCC2CCC(C(c3cccc(F)c3)N(C)C)CC2)Cc2ccccc2)c(C)c1 (centres unmarked) [Example 388] , which class would you pick?
interval 2

For the record COc1ccc(S(=O)(=O)N2CCCCC2COCC(=O)NC2CCC(C(c3ccc(F)cc3)N(C)C)CC2)cc1OC (centres unmarked) [Example 555] , report the class its μ (binding on the μ opioid receptor, % inhibition) corresponds to.
interval 1

Hi there! Could you help me figure out the category for CC(Oc1ccccc1)C(=O)NCC1CCC(C(c2ccc(F)cc2)N(C)C)CC1 (centres unmarked) [Example 236] please?
interval 3

Each compound maps to one class by μ (binding on the μ opioid receptor, % inhibition). Which class for CN(C)C(c1ccc(F)cc1)C1CCC(CCNC(=O)COCC2CCCCN2S(=O)(=O)c2ccc(Cl)c(Cl)c2)CC1 (centres unmarked) [Example 337] ?
interval 2

Sort COc1cc(C)c(S(=O)(=O)N2CCCC(OCC(=O)NC3CCC(C(c4ccc(F)cc4)N(C)C)CC3)C2)c(C)c1C (centres unmarked) [Example 435] into one of the categories.
interval 1

---
// bin(item) where item = CN(C)C(c1cccc(F)c1)C1CCC(CCNC(=O)COC2CCCN(S(=O)(=O)c3ccccc3)C2)CC1 (centres unmarked) [Example 326]
interval 2

Pick a category. Item: CN(C)C(c1cccs1)C1CCC(CCNC(=O)COC2CCCCC2N(C)S(=O)(=O)c2ccc(Cl)c(Cl)c2)CC1 (centres unmarked) [Example 214]
interval 3

Which of the defined bands does the recorded μ (binding on the μ opioid receptor, % inhibition) of CN(C)C(c1cccs1)C1CCC(CNC(=O)COC2CCN(S(=O)(=O)c3ccccc3)CC2)CC1 (centres unmarked) [Example 276] sit within?
interval 3

Bin? CN(C)C(c1cccs1)C1CCC(CCNC(=O)COC2CCN(S(=O)(=O)c3ccccc3)CC2)CC1 (centres unmarked) [Example 230]
interval 3

Pick a category. Item: COc1cc(C)c(S(=O)(=O)N2CCC(OCC(=O)NC3CCC(C(c4ccc(F)cc4)N(C)C)CC3)C2)c(C)c1C (centres unmarked) [Example 365]
interval 1

Class for COc1ccc(S(=O)(=O)N(C)CCOCC(=O)NCCC2CCC(C(c3cccc(F)c3)N(C)C)CC2)cc1OC (centres unmarked) [Example 293] ?
interval 3
